TEST SYSTEM: cGMP-dependent protein kinase 2 (Homo sapiens) (UniProt Q13237);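 further: mean inhibition of PRKG2 from the GSK PKIS screen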
Sequence (Q13237 whole entry): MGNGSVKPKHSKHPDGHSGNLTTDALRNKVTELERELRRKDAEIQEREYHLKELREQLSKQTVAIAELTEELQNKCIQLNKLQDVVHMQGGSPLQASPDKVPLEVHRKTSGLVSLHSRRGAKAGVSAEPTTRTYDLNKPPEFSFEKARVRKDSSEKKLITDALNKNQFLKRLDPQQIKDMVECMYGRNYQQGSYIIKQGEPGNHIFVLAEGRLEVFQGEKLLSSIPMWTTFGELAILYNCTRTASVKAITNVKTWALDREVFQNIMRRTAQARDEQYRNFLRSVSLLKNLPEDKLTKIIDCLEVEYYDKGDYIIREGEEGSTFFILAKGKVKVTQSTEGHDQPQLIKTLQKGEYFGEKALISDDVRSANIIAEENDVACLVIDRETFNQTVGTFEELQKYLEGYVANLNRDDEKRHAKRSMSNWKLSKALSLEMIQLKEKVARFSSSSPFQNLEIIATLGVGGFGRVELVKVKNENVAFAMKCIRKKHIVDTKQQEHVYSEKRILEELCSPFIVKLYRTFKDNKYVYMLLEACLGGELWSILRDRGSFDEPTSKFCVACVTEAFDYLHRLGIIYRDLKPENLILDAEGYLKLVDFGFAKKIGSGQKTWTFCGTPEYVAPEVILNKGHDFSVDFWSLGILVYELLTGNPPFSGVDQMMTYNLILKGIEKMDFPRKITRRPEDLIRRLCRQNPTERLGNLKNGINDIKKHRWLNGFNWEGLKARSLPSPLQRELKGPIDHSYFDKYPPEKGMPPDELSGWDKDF
CONDITION DESCRIPTION: at 1 µM
For each record, write down the corresponding inhibition.

The compound COc1ccc(-c2oc3ncnc(N)c3c2-c2ccc(NC(=O)Nc3cc(C(F)(F)F)ccc3F)cc2)cc1 showed inhibition equal to 5.54%

Field inhibition (entry COc1ccc(-c2cc3c(N)ncnc3o2)cc1 ) reads 1.5%

response.value for COc1cccc(-n2ncc3c(N/N=C/c4ccc(F)cc4)ncnc32)c1 (field: inhibition) = 2.67%

Reported inhibition of COc1cc(/C=N/Nc2ncnc3[nH]ncc23)ccc1O : 55%

Entry under test: COc1cc2ncn(-c3cc(OCc4ccccc4C(F)(F)F)c(C(=O)N(C)C)s3)c2cc1OC . Its inhibition was 0.43%

====

TEST SYSTEM: Cyclin-dependent kinase 5 (Homo sapiens);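 further: enzyme tested as the CDK5/p35 complex, values are mean percent inhibition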
CONDITION DESCRIPTION: at 0.1 µM
Kindly state inhibition for each of the entries shown.
Numeric answer only, unit % assumed.

# molecule Cc1ccc(O)cc1Nc1ccnc2cc(-c3ccccn3)ccc12 ; its inhibition = 0.73

The reported inhibition of the molecule COc1ccc2[nH]c3c4[nH]c5ccc(OC)cc5c4c4c(c3c2c1)C(=O)NC4=O was 1.11

Input CCCN1CCC(c2ccc(Nc3nc(Nc4cc(F)ccc4C(N)=O)c4cc[nH]c4n3)c(OC)c2)CC1 . Output inhibition: 2.09

According to the records, this molecule NS(=O)(=O)c1ccc(N/N=C2\C(=O)Nc3ccc4ncccc4c32)cc1 displays inhibition of 79

The recorded inhibition for Fc1ccc(-c2nn3ccccc3c2-c2ccncc2)cc1 is 0.46

Data point: N#Cc1c(NC(=O)CN2CCOCC2)sc2c1CCCC2 ; inhibition = 4.75

GET /value?item= CCN1CCC(CC(=O)Nc2n[nH]c3nnc(-c4cccc(F)c4F)cc23)CC1 &field=inhibition returns 1.05

Looking up Fc1ccc(-c2cc(-c3c[nH]nc3-c3ccccn3)ccn2)cc1 , I found its inhibition recorded as -0.24

So, O=C(O[C@H]1CN[C@H](C#Cc2cc3ncnc(Nc4ccc(Cc5ccccc5)cc4)c3s2)C1)N1CCOCC1 ? Its inhibition was 0.05

Record summary for COc1ccc(-c2nn3ncccc3c2-c2ccnc(Nc3ccc4c(c3)OCCO4)n2)cc1 : reported inhibition = -0.08

inhibition in this record for CCn1cc(-c2ccnc3[nH]ccc23)c(-c2cccc(NC(=O)Nc3ccc(OCc4ccccc4)cc3)c2)n1 : -0.05

Given item Nc1nc(-c2ccc(F)cc2)c(-c2ccc3ncccc3n2)s1 , the value recorded as its inhibition is 4.02

For CCn1c(-c2nonc2N)nc2c(C#CC(C)(C)O)ncc(OC3CCNCC3)c21 the molecule record lists inhibition as 0.91

inhibition reported for this molecule COc1cc(N2CCN(C(C)C)CC2)ccc1Nc1nc(Nc2ccc(F)cc2C(N)=O)c2cc[nH]c2n1 : 0.74

Entry CN1CCC(n2cnc(-c3ccc(F)cc3)c2-c2ccnc(Nc3ccccc3)n2)CC1 — recorded inhibition = 0.25

Noted for Clc1ccc(-c2nn3ncccc3c2-c2ccnc(Nc3ccccc3)n2)cc1 : its inhibition reads 0.66

====

Provide the recorded inhibition for the entries that follow.
TEST SYSTEM: Dual specificity tyrosine-phosphorylation-regulated kinase 1B (Homo sapiens) (UniProt Q9Y463);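 further: values are mean percent inhibition of DYRK1B, from the GSK_PKIS set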
Sequence (Q9Y463 whole entry, looked up): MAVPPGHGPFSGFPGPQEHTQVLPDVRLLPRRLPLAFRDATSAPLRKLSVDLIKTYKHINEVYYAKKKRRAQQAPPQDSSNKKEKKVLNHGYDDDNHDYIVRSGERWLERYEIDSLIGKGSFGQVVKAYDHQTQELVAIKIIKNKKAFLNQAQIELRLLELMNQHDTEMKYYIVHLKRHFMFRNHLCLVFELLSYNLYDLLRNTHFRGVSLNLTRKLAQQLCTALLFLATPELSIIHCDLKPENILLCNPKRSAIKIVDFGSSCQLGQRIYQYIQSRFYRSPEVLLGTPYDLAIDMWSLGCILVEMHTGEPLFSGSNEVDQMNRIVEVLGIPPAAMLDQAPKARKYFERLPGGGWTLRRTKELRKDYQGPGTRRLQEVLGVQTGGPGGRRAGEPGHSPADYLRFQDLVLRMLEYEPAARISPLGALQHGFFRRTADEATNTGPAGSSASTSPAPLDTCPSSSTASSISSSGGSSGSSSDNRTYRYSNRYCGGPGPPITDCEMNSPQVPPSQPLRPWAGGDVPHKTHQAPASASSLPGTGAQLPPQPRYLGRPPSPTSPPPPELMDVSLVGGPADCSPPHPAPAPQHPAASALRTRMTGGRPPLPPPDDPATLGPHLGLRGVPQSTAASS
CONDITION DESCRIPTION: at 1 µM
Unit % implied. Number only.

// inhibition lookup, compound = CCOc1ccc2c(-c3ccnc(Nc4cccc(C(F)(F)F)c4)n3)cnn2n1 , result: 21

Reported inhibition ( O=C(O[C@H]1CN[C@H](C#Cc2cc3ncnc(Nc4ccc(Cc5ccccc5)cc4)c3s2)C1)N1CCOCC1 ) = 2.47

Measured inhibition, Fc1ccc(-c2nn3ncccc3c2-c2ccnc(Nc3ccc4c(c3)OCCO4)n2)cc1 : -1.69

Just so you know, measured inhibition for O=C(Nc1n[nH]c2cc(-c3ccc(F)cc3)ccc12)C1CC1 came out at 7.73

The reported value for Nc1ncc(-c2cccc(S(N)(=O)=O)c2)c2scc(-c3ccc(F)c(Cl)c3)c12 in terms of inhibition is 0.74

Just so you know, measured inhibition for NC(=O)c1sc(-n2cnc3ccc(C(F)(F)F)cc32)cc1OCc1ccccc1Br came out at 2.27

// inhibition value for Clc1ccc(-c2nn3ncccc3c2-c2ccnc(Nc3ccccc3)n2)cc1 : 3.34

inhibition measured on NS(=O)(=O)c1ccc(Nc2ncc(-c3ccccc3)o2)cc1 = 12.5

What the record says about CNC(=O)c1cc(-c2ccc(F)cc2)cc(-c2ccc(S(=O)(=O)N3CCCC3)cc2)c1N : inhibition is -0.38

Entry Cc1ccc(O)cc1Nc1ccnc2cc(-c3ccccn3)ccc12 — recorded inhibition = 1.85

Query c1ccc(COc2ccc(Nc3ncnc4ccc(-c5ccco5)cc34)cc2)cc1 yields inhibition of 0.34

Looking up Cc1cccc(Nc2ncc(-c3ccccc3)o2)c1 , I found its inhibition recorded as 2.16

Value of inhibition reported for the compound COc1ccc(CNC(=O)c2ccc(-c3cc(-c4nnc(C)o4)ccc3C)cc2)cc1 is 2.22

Briefly, inhibition measured for FC(F)(F)c1cccc(-c2nn3ncccc3c2-c2ccnc(Nc3ccc4c(c3)OCCO4)n2)c1 : 0.83

Item: COc1ccc(-c2nn3ncccc3c2-c2ccnc(Nc3ccc4c(c3)OCCO4)n2)cc1 | inhibition: -3.65

Per the record, COc1cc(/C=N/Nc2ncnc3[nH]ncc23)ccc1O has inhibition of 31.6

Data point: COc1cc2c(cc1Nc1nc(Nc3ccsc3C(N)=O)c3cc[nH]c3n1)N(C(=O)CN(C)C)CCC2(C)C ; inhibition = 10.2

Measured inhibition of CNC(=O)c1cncc(/C=C/c2ccccc2Cl)c1 : 0.88

Data point: CCN(CC)S(=O)(=O)c1ccc(OC)c(Nc2ncc(-c3ccccc3)o2)c1 ; inhibition = 14.7

// inhibition value for COc1ccc(-c2cc(-c3c[nH]nc3-c3ccccn3)ccn2)cc1 : 2.54

According to the records, this compound Nc1nc(-c2ccc(F)cc2)c(-c2ccc3ncccc3n2)s1 displays inhibition of 19.8

Lab book: inhibition of Fc1ccc(-c2nn3ccccc3c2-c2ccncc2)cc1 noted as 2.03

The recorded inhibition for entry CN(C)CCOc1ccc(-c2nc(-c3ccncc3)c(-c3ccc4c(c3)CC/C4=N\O)[nH]2)cc1 equals 5.07

Memo: CC(=O)NCc1cccc(C#Cc2cncnc2Nc2ccc(OCc3cccc(F)c3)c(Cl)c2)c1 , reported inhibition: 1.17

Value of inhibition reported for the compound CCn1cc(-c2ccnc3[nH]ccc23)c(-c2cccc(NC(=O)Nc3ccc(OCc4ccccc4)cc3)c2)n1 is -0.5

// inhibition lookup, compound = COC(=O)c1sc(-n2cnc3cc(OC)c(OC)cc32)cc1OCc1ccccc1C(F)(F)F , result: -1.98

Sample [O-][S+]1CCN(Cc2ccc(-c3ccc4ncnc(Nc5ccc(OCc6cccc(F)c6)c(Cl)c5)c4c3)o2)CC1 ; inhibition observed: 1.57

The compound listed as COc1cccc(-c2c[nH]c3c(N/N=C/c4ccncc4)ncnc23)c1 shows inhibition equal to 50.5

Value of measured inhibition for the entry CCn1c(-c2nonc2N)nc2c(C#CC(C)(C)O)ncc(OC3CCNCC3)c21 : 1.34

inhibition in this record for COc1cc(N2CCN(C(C)C)CC2)ccc1Nc1nc(Nc2ccc(F)cc2C(N)=O)c2cc[nH]c2n1 : 76.6

Recorded inhibition (compound N#Cc1c(NC(=O)c2ccc(F)cc2)sc2c1CCCC2 ): 1.05

====

TEST SYSTEM: Fibroblast growth factor receptor 3 (Homo sapiens);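 further: each value is a mean percent inhibition of FGFR3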
CONDITION DESCRIPTION: at 0.1 µM
VALUE KIND: inhibition (%)
Quick note: give the figure in %, leave out the unit.

Recorded result, NC(=O)c1sc(-n2cnc3ccc(C(F)(F)F)cc32)cc1OCc1ccccc1Br , inhibition: 5.08

Form: compound = COc1cc(/C=N/Nc2ncnc3[nH]ncc23)ccc1O ; inhibition = 5.91

For CCNC(=O)O[C@H]1CN[C@H](C#Cc2cc3ncnc(Nc4ccc(OCc5cccc(F)c5)c(Cl)c4)c3s2)C1 the compound record lists inhibition as 4.87

====

TEST SYSTEM: 3-phosphoinositide-dependent protein kinase 1 (Homo sapiens) (UniProt O15530);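 further: values are mean inhibition of PDK1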
Sequence (whole entry): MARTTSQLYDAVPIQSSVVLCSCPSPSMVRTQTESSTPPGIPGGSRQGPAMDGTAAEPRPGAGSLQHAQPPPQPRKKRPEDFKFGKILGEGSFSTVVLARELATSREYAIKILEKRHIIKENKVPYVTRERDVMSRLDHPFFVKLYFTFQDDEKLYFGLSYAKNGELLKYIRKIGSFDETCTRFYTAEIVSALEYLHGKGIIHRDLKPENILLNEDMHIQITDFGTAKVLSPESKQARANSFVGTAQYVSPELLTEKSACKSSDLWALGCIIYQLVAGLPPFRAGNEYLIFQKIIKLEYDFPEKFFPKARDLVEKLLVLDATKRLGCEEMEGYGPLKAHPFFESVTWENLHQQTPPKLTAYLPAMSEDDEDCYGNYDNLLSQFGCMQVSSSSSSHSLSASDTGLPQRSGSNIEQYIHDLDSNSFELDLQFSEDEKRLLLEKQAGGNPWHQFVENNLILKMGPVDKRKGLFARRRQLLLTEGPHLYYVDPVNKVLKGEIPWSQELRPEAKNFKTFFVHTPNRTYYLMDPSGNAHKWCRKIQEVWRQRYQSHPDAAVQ
CONDITION DESCRIPTION: at 0.1 µM
VALUE KIND: inhibition (%)
Give a bare numeral; the unit % is implied.

For Fc1ccc(-c2cc(-c3c[nH]nc3-c3ccccn3)ccn2)cc1 the compound record lists inhibition as 0.78

Noted for N#Cc1c(NC(=O)CN2CCOCC2)sc2c1CCCC2 : its inhibition reads 2.07

Record summary for COc1cc2ncn(-c3cc(OCc4ccccc4C(F)(F)F)c(C(=O)N(C)C)s3)c2cc1OC : reported inhibition = 1.17

The measured values listed here are drawn from ChEMBL document CHEMBL1961873.
